Assay: chemical genetic growth profiling, strain panel (AID 1159580);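 note: tested at 20 µM; growth read once vehicle control cultures reached saturation at 30 °C; 1 = growth at the plate median or of vehicle wells; lower values mean less growth of the strain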
Conditions: S. cerevisiae deletion strains, growth OD, locus YMR307W, strain GAS1
The campaign covered roughly 5,500 compounds. About 2,000 (36%) were called active. Roughly 18% stayed inconclusive and do not appear here. Cut-off read from the data, not from the text of the source: active = normalized growth mostly below about 0.91 (no sharp cut-off); inconclusive = no clear call, values can overlap the other calls; inactive = mostly above about 0.92. This is one part of the list.
Pick one and only one: active, inactive

Exercise: Kindly provide the recorded test outcome for the following compound: Nc1ccc(Oc2ccc(Cl)cc2C2CCCCC2)nc1
Solution: active

Exercise: For c1ccc(-c2ccc(-c3csc(-c4cccnc4)n3)cc2)cc1 then?
Solution: inactive

Exercise: Input COc1ccc2c(=O)c(OC)c(-c3ccccc3)oc2c1
Solution: inactive

Exercise: Can you handle COc1cc(OC)c2c(=O)cc(-c3ccccc3)oc2c1 next?
Solution: inactive

Exercise: Ok, now CC(C)c1ccc2c(c1)c(SC(C)(C)C)c(CC(C)(C)C(=O)O)n2Cc1ccc(Cl)cc1
Solution: inactive

Exercise: What would you report for COc1cc(C)c2c(=O)cc(-c3ccccc3)oc2c1 ?
Solution: inactive

Exercise: Here is the next compound: COc1ccc2oc3ccccc3c(=O)c2c1
Solution: inactive

Exercise: Same question for COc1ccc2oc(-c3ccccc3)c(OC)c(=O)c2c1 please.
Solution: inactive

Exercise: Next: CCC(C)C(=O)c1c(O)c(C)c2oc3c(C)c(O)c(C(=O)C(C)CC)c(O)c3c2c1O (centres undefined)
Solution: inactive

---

Test: chemical genetic growth profiling, strain panel (AID 1159580);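 note: tested at 20 µM; growth read once vehicle control cultures reached saturation at 30 °C; 1 = growth at the plate median or of vehicle wells; lower values mean less growth of the strain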
Details: S. cerevisiae deletion strains, growth OD, locus YJL095W, strain BCK1, stronger effect = lower value
The whole screen tested about 5,500 compounds, of which about 2,000 (36%) were called active. Inconclusive results (about 18%) are left out. Some of the results follow.
endpoint-name: normalized growth
// print number alone

Exercise: Report normalized growth for Clc1ccccc1-c1csc(-c2ccncc2)n1 please.
Solution: 0.829

Exercise: What about this compound? C=CCS(=O)C[C@H](N)C(=O)O (stereo not given in full)
Solution: 1.03

Exercise: Also check O=C(Nc1ccncc1)c1cc(-c2ccccc2)oc1C(F)(F)F
Solution: 0.991

Exercise: Please give the result for N/C(=N/O)c1ccc(Oc2ccc(C3SCCS3)cc2)c([N+](=O)[O-])c1 too.
Solution: 1.01

Exercise: Next compound: C[C@]12CCC3C(CC[C@H]4C[C@@H](O)CC[C@]34C)C1CC[C@@H]2O (stereo not given in full)
Solution: 1.01

---

Could you please report measured normalized growth for the items listed next?
Assay: chemical genetic growth profiling, strain panel (AID 1159580);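 note: tested at 20 µM; growth read once vehicle control cultures reached saturation at 30 °C; 1 = growth at the plate median or of vehicle wells; lower values mean less growth of the strain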
Conditions: S. cerevisiae deletion strains, growth OD, locus YOR001W, strain rrp6, stronger effect = lower value
Screen size: about 5,500 compounds; about 2,000 (36%) were called active. Inconclusive results (about 18%) are left out. The list shows a part of the results.
Answer with the value's number alone.

Exercise: Could you tell me which normalized growth is on file for CCCCCCCCCCCCCC(=O)OC1C(C)C2(O)C(C=C(CO)CC3(O)C(=O)C(C)=CC32)C2C(C)(C)C12OC(C)=O (stereo not given) ?
Solution: 1.01

Exercise: Would you mind doing COC(=O)/C(C)=C\CC12OC(C)(C)C3CC(C=C4C(=O)c5c(OC)c6c(c(CC=C(C)C)c5OC431)OC(C)(CCC=C(C)C)C=C6)C2=O (stereo not given) as well?
Solution: 1.03

Exercise: Subsequent entry: CN1CCC[C@@H]1CCO[C@](C)(c1ccccc1)c1ccc(Cl)cc1
Solution: 0.951

Exercise: Try COc1ccc(-c2oc3cc(OC)c(OC)c(OC)c3c(=O)c2OC)cc1OC next.
Solution: 0.938

Exercise: Same thing, different compound: C=NC(C(=O)NC1C(=O)N2C1SC(C)(C)C2C(=O)O)c1ccccc1 (stereo not given)
Solution: 1.03

Exercise: Now the compound CC12CCC3C(=CCc4cc(O)ccc43)C1CCC2=O (stereo not given)
Solution: 0.955

Exercise: Field entry: COc1cc(C)c2c(=O)cc(-c3ccccc3)oc2c1
Solution: 0.932

Exercise: Subsequent entry: COc1ccc2c(c1)OCC(Cc1ccc(OC)c(O)c1)C2=O (stereo not given)
Solution: 0.898

Exercise: Try CCC(=O)OC1[C@@H]2CC3=C4CC(=O)O[C@@H](c5ccoc5)[C@]4(C)CCC3[C@@](C)(C2=O)[C@@H](CC(=O)OC)C1(C)C (stereo not given in full) next.
Solution: 0.994

Exercise: Please do the same for COC1C=CC23c4cc5c(cc4CN(CC2O)[C@@H]3C1)OCO5 (stereo not given in full) as well.
Solution: 0.978

Exercise: Query COc1c(C)c2c(c(O)c1C/C=C(\C)CCC(=O)O)C(=O)OC2 next
Solution: 0.582

Exercise: Repeat with Clc1ccccc1CN1CCc2sccc2C1
Solution: 0.988

Exercise: Lookup O=C1CCCN1CC#CCN1CCCC1
Solution: 1.04

Exercise: Follow-up entry: COc1cc2c(cc1OC)C1(O)C(=O)c3ccc(O)c(C(=O)O)c3OC1CO2 (stereo not given)
Solution: 1.02

Exercise: Then what about the compound COc1ccc2c(c1)OCC(Cc1ccc(O)c(OC)c1)C2=O (stereo not given) ?
Solution: 0.982

Exercise: And NC(=O)NC1NC(=O)NC1=O (stereo not given) ?
Solution: 1

Exercise: Subsequent entry: NC1(C(=O)O)CC1
Solution: 1.01

Exercise: Input Clc1ccc(C(Cn2ccnc2)OCc2ccsc2Cl)c(Cl)c1 (stereo not given)
Solution: 0.0652

Exercise: Another compound: CC(=O)OCC(=O)[C@@]1(O)CCC2C3CCC4=CC(=O)C=CC4(C)C3[C@@H](O)C[C@@]21C (stereo not given in full)
Solution: 0.98

Exercise: Similarly, COC(=O)[C@@H]1OC(=O)C2OC23[C@@]1(C)CCC1[C@@]2(C)CCC(=O)C(C)(C)C2C[C@@H](OC(C)=O)[C@]13C (stereo not given in full) ?
Solution: 1.02

Exercise: What do you get for FC(F)(F)c1cccc(N2CCNCC2)c1 ?
Solution: 0.985

Exercise: Another compound: CC(=O)O[C@H]1C[C@@]2(C)[C@@H](C[C@@H](O)C3[C@]2(C)CC[C@H]2[C@H](C)[C@H](O)CC[C@]32C)/C1=C(/CCC=C(C)C)C(=O)O (stereo not given in full)
Solution: 1.01

Exercise: One more compound: COc1ccc2oc3ccccc3c(=O)c2c1
Solution: 0.825

Exercise: Request: CC(=O)Oc1c2c(c(CC=C(C)C)c3c1C(=O)C1=C[C@@H]4CC5C(C)(C)OC(C/C=C(\C)C(=O)O)(C4=O)[C@@]15O3)OC(C)(CCC=C(C)C)C=C2 (stereo not given in full)
Solution: 0.988

Exercise: Okay, and NC1(C(=O)O)CCCC1 ?
Solution: 1.03

Exercise: Now try Cc1cccc(C)c1NC(=O)C1CCCCN1C (stereo not given) .
Solution: 0.974

Exercise: Repeat with O=C(O)C(O)C(O)C(=O)O (stereo not given)
Solution: 0.991

Exercise: Follow-up item: Cc1cc(CC(=O)O)n(C)c1C(=O)c1ccc(Cl)cc1
Solution: 1.01

Exercise: Same question, CC(=O)N[C@@H](CCC(=O)O)C(=O)O this time
Solution: 0.988

Exercise: Please do the same for CCC(C)C(=O)c1c(O)c(C)c2oc3c(C)c(O)c(C(=O)C(C)CC)c(O)c3c2c1O (stereo not given) as well.
Solution: 0.954

Exercise: Same for CC(C)(S)[C@@H](N)C(=O)O
Solution: 0.989

Exercise: Request: CC(C)=CC1C(C(=O)OCc2cccc(Oc3ccccc3)c2)C1(C)C (stereo not given)
Solution: 0.988

Exercise: Entry to check: O=NN(CCCl)C(=O)NCCCl
Solution: 0.751

Exercise: Next record, please: CCCn1c(=O)c2[nH]c(C3CCCC3)nc2n(CCC)c1=O
Solution: 0.995

Exercise: Also C[C@]12CCC3c4ccc(OC(=O)c5ccccc5)cc4CCC3C1CCC2=O (stereo not given in full) ?
Solution: 1.01
